src = ChEMBL document CHEMBL6092211

Biological target: Phosphatidylinositol 3,4,5-trisphosphate 5-phosphatase 1 (Homo sapiens, UniProt Q92835)
Sequence (Q92835 whole entry): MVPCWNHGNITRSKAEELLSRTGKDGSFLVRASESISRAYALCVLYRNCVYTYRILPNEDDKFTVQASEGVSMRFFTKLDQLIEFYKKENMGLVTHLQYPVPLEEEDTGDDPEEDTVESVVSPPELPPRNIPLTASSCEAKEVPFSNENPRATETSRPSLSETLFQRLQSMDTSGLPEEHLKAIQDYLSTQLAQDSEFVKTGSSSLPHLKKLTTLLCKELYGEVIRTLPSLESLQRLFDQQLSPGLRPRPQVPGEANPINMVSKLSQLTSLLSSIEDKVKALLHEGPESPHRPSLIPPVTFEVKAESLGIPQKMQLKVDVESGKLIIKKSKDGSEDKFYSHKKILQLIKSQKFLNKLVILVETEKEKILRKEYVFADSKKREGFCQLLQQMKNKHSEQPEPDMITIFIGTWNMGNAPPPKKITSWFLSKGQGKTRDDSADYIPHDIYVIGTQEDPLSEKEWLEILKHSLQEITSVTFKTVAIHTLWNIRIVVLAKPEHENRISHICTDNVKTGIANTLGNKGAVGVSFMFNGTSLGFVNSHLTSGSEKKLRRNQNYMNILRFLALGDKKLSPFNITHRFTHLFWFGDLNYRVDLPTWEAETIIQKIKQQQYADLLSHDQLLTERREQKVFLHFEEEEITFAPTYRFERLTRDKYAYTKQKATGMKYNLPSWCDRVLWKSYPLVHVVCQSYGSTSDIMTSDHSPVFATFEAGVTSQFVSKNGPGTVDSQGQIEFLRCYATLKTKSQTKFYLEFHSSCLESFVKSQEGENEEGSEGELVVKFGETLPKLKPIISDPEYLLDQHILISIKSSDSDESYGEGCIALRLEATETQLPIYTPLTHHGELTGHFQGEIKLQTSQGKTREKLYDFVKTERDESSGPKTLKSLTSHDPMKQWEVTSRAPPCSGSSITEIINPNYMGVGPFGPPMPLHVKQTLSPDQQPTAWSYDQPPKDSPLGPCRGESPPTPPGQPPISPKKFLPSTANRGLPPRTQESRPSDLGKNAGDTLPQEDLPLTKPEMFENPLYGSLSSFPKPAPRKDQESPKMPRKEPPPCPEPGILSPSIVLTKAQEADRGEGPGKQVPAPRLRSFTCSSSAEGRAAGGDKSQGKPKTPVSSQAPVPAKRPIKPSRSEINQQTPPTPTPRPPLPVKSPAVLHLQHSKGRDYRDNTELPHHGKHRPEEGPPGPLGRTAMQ
pKi: −log10 of the molar value.

| molecule | assayed.target | pKi |
| --- | --- | --- |
| N#CC1=C2N=C(N)c3ccccc3N2C2=C(C(=O)CCC2)C1c1ccc(-c2ccccc2)cc1 (stereo unspecified) | Phosphatidylinositol 3,4,5-trisphosphate 5-phosphatase 1 (Homo sapiens, UniProt Q92835) | 5.49 |
